- Tested on: Staphylococcus aureus
- Experimental protocol: Antimicrobial activity against methicillin-resistant Staphylococcus aureus CGK8 by Etest method
- Format: functional
Measured attribute: MIC (µg/mL)
Give the value in µg/mL but do not write µg/mL after it.

Worked cases, answers included:
Enquiry: What does the data say about its MIC? Entry: CCCCCCCCCC(=O)N[C@@H](Cc1c[nH]c2ccccc12)C(=O)N[C@H](CC(N)=O)C(=O)N[C@@H](CC(=O)O)C(=O)N[C@@H]1C(=O)NCC(=O)N[C@@H](CCCN)C(=O)N[C@@H](CC(=O)O)C(=O)N[C@H](C)C(=O)N[C@@H](CC(=O)O)C(=O)NCC(=O)N[C@H](CO)C(=O)N[C@@H]([C@H](C)CC(=O)O)C(=O)N[C@@H](CC(=O)c2ccccc2N)C(=O)O[C@@H]1C
Return: 4

Enquiry: What does the data say about its MIC? Entry: CC(=O)N[C@@H]1[C@H](Oc2c3cc4cc2Oc2ccc(cc2Cl)[C@@H](O[C@@H]2O[C@@H](CO)[C@@H](O)[C@H](O)[C@@H]2NC(C)=O)[C@@H]2NC(=O)[C@H](NC(=O)[C@@H]4NC(=O)[C@H]4NC(=O)[C@@H](Cc5ccc(c(Cl)c5)O3)NC(=O)[C@H](N)c3ccc(O)c(c3)Oc3cc(O)cc4c3)c3ccc(O)c(c3)-c3c(O[C@H]4O[C@H](CO)[C@@H](O)[C@@H](O)[C@@H]4O)cc(O)cc3[C@@H](C(=O)O)NC2=O)O[C@@H](CO)[C@@H](O)[C@@H]1O
Return: 2

Enquiry: What does the data say about its MIC? Entry: CC(=O)NC[C@H]1CN(c2ccc(N3CCOCC3)c(F)c2)C(=O)O1 [LINEZOLID]
Return: 1.5

# evaluate next
Enquiry: What does the data say about its MIC? Entry: Cc1onc(-c2ccccc2)c1C(=O)N[C@@H]1C(=O)N2[C@@H]1SC(C)(C)[C@@H]2C(=O)O [OXACILLIN]
Return: 1

###

- System: Staphylococcus aureus
- Experimental protocol: Antimicrobial activity against methicillin-resistant Staphylococcus aureus CGK1 by Etest method
- Assay type: functional
Reported MIC values are given for each entry in this list.
// return the numeric value with its unit appended

Worked cases, answers included:
Enquiry: What does the data say about its MIC? Entry: Cc1onc(-c2ccccc2)c1C(=O)N[C@@H]1C(=O)N2[C@@H]1SC(C)(C)[C@@H]2C(=O)O
Return: 32 µg/mL

Enquiry: What does the data say about its MIC? Entry: CCCCCCCCCC(=O)N[C@@H](Cc1c[nH]c2ccccc12)C(=O)N[C@H](CC(N)=O)C(=O)N[C@@H](CC(=O)O)C(=O)N[C@@H]1C(=O)NCC(=O)N[C@@H](CCCN)C(=O)N[C@@H](CC(=O)O)C(=O)N[C@H](C)C(=O)N[C@@H](CC(=O)O)C(=O)NCC(=O)N[C@H](CO)C(=O)N[C@@H]([C@H](C)CC(=O)O)C(=O)N[C@@H](CC(=O)c2ccccc2N)C(=O)O[C@@H]1C
Return: 0.5 µg/mL

Enquiry: What does the data say about its MIC? Entry: CC(=O)N[C@@H]1[C@H](Oc2c3cc4cc2Oc2ccc(cc2Cl)[C@@H](O[C@@H]2O[C@@H](CO)[C@@H](O)[C@H](O)[C@@H]2NC(C)=O)[C@@H]2NC(=O)[C@H](NC(=O)[C@@H]4NC(=O)[C@H]4NC(=O)[C@@H](Cc5ccc(c(Cl)c5)O3)NC(=O)[C@H](N)c3ccc(O)c(c3)Oc3cc(O)cc4c3)c3ccc(O)c(c3)-c3c(O[C@H]4O[C@H](CO)[C@@H](O)[C@@H](O)[C@@H]4O)cc(O)cc3[C@@H](C(=O)O)NC2=O)O[C@@H](CO)[C@@H](O)[C@@H]1O
Return: 1 µg/mL

More entries:
Enquiry: What does the data say about its MIC? Entry: CN[C@H](CC(C)C)C(=O)N[C@H]1C(=O)N[C@@H](CC(N)=O)C(=O)N[C@H]2C(=O)N[C@H]3C(=O)N[C@H](C(=O)N[C@H](C(=O)O)c4cc(O)cc(O)c4-c4cc3ccc4O)[C@H](O)c3ccc(c(Cl)c3)Oc3cc2cc(c3O[C@@H]2O[C@H](CO)[C@@H](O)[C@H](O)[C@H]2O[C@H]2C[C@](C)(N)[C@H](O)[C@H](C)O2)Oc2ccc(cc2Cl)[C@H]1O
Return: 1.5 µg/mL

Source of measurements: ChEMBL document CHEMBL1649320
